A collection of molecules and their measured MIC
test system: Sporothrix schenckii; assay: Antifungal activity against Sporothrix schenckii PGAC0016 isolate from cutaneous-lymphatic sporotrichosis patient after 72 hrs by modified NCCLS M38-A method; assay type: functional
Could you give me the number in µg/mL? Just the number is fine.

Example molecules with recorded MIC:
| MOLECULE | MIC [µg/mL] |
| --- | --- |
| CCC(C)n1ncn(-c2ccc(N3CCN(c4ccc(OCC5COC(Cn6cncn6)(c6ccc(Cl)cc6Cl)O5)cc4)CC3)cc2)c1=O (centres undefined) [ITRACONAZOLE] | 0.5 |
| C[C@@H](c1ncncc1F)[C@](O)(Cn1cncn1)c1ccc(F)cc1F [VORICONAZOLE] | 16 |

IN: What MIC value was documented for this molecule, C[C@@H]1[C@H](O)[C@@H](C)/C=C/C=C/C=C/C=C/C=C/C=C/C=C/[C@H](O[C@@H]2O[C@H](C)[C@@H](O)[C@H](N)[C@@H]2O)C[C@@H]2O[C@](O)(C[C@@H](O)C[C@@H](O)[C@H](O)CC[C@@H](O)C[C@@H](O)CC(=O)O[C@H]1C)C[C@H](O)[C@H]2C(=O)O [AMPHOTERICIN B] ?
OUT: 0.25

###

tested on: Sporothrix schenckii; experiment: Antifungal activity against Sporothrix schenckii SSA29 isolate from cutaneous-lymphatic sporotrichosis patient after 72 hrs by ATB Fungus 2 method; assay type: functional
OBSERVED_PROPERTY: MIC (µg/mL)
Could you give me the number in µg/mL? Just the number is fine.

IN: What MIC value was documented for this compound, CCC(C)n1ncn(-c2ccc(N3CCN(c4ccc(OCC5COC(Cn6cncn6)(c6ccc(Cl)cc6Cl)O5)cc4)CC3)cc2)c1=O (centres undefined) ?
OUT: 0.5

IN: What MIC value was documented for this compound, `Nc1nc(=O)[nH]cc1F` ?
OUT: 32

IN: What MIC value was documented for this compound, `C[C@@H]1[C@H](O)[C@@H](C)/C=C/C=C/C=C/C=C/C=C/C=C/C=C/[C@H](O[C@@H]2O[C@H](C)[C@@H](O)[C@H](N)[C@@H]2O)C[C@@H]2O[C@](O)(C[C@@H](O)C[C@@H](O)[C@H](O)CC[C@@H](O)C[C@@H](O)CC(=O)O[C@H]1C)C[C@H](O)[C@H]2C(=O)O` ?
OUT: 2

###

test system: Sporothrix schenckii; experiment: Antifungal activity against Sporothrix schenckii P14036 isolate from cutaneous-lymphatic sporotrichosis patient after 72 hrs by ATB Fungus 2 method; format: functional
OBSERVED_PROPERTY: MIC

Example compounds with recorded MIC:
| COMPOUND | MIC |
| --- | --- |
| C[C@@H]1[C@H](O)[C@@H](C)/C=C/C=C/C=C/C=C/C=C/C=C/C=C/[C@H](O[C@@H]2O[C@H](C)[C@@H](O)[C@H](N)[C@@H]2O)C[C@@H]2O[C@](O)(C[C@@H](O)C[C@@H](O)[C@H](O)CC[C@@H](O)C[C@@H](O)CC(=O)O[C@H]1C)C[C@H](O)[C@H]2C(=O)O | 1 µg/mL |
| CCC(C)n1ncn(-c2ccc(N3CCN(c4ccc(OCC5COC(Cn6cncn6)(c6ccc(Cl)cc6Cl)O5)cc4)CC3)cc2)c1=O (centres undefined) | 1 µg/mL |
| OC(Cn1cncn1)(Cn1cncn1)c1ccc(F)cc1F | > 128 µg/mL |

Would you kindly look at the next entry?
IN: What MIC value was documented for this compound, `Nc1nc(=O)[nH]cc1F` ?
OUT: 64 µg/mL

###

tested on: Sporothrix schenckii; assay: Antifungal activity against Sporothrix schenckii isolate from cutaneous-lymphatic sporotrichosis patient after 72 hrs by ATB Fungus 2 method; type: functional
A collection of compounds and their measured MIC50
Could you give me the number in µg/mL? Just the number is fine.

Example compounds with recorded MIC50:
| COMPOUND | MEASURED_VALUE |
| --- | --- |
| Nc1nc(=O)[nH]cc1F | 64 |
| C[C@@H]1[C@H](O)[C@@H](C)/C=C/C=C/C=C/C=C/C=C/C=C/C=C/[C@H](O[C@@H]2O[C@H](C)[C@@H](O)[C@H](N)[C@@H]2O)C[C@@H]2O[C@](O)(C[C@@H](O)C[C@@H](O)[C@H](O)CC[C@@H](O)C[C@@H](O)CC(=O)O[C@H]1C)C[C@H](O)[C@H]2C(=O)O | 1 |

Would you kindly look at the next entry?
IN: What MIC50 value was documented for this compound, CCC(C)n1ncn(-c2ccc(N3CCN(c4ccc(OCC5COC(Cn6cncn6)(c6ccc(Cl)cc6Cl)O5)cc4)CC3)cc2)c1=O (centres undefined) ?
OUT: 1

###

test system: Sporothrix schenckii; test: Antifungal activity against Sporothrix schenckii PGAC0016 isolate from cutaneous-lymphatic sporotrichosis patient after 72 hrs by ATB Fungus 2 method; format: functional
A collection of compounds and their measured MIC

Example compounds with recorded MIC:
| COMPOUND | MEASURED_ON | MIC |
| --- | --- | --- |
| C[C@@H]1[C@H](O)[C@@H](C)/C=C/C=C/C=C/C=C/C=C/C=C/C=C/[C@H](O[C@@H]2O[C@H](C)[C@@H](O)[C@H](N)[C@@H]2O)C[C@@H]2O[C@](O)(C[C@@H](O)C[C@@H](O)[C@H](O)CC[C@@H](O)C[C@@H](O)CC(=O)O[C@H]1C)C[C@H](O)[C@H]2C(=O)O | Sporothrix schenckii | ≤ 0.5 µg/mL |
| Nc1nc(=O)[nH]cc1F | Sporothrix schenckii | > 64 µg/mL |

IN: What MIC value was documented for this compound, `OC(Cn1cncn1)(Cn1cncn1)c1ccc(F)cc1F` ?
OUT: > 128 µg/mL

IN: What MIC value was documented for this compound, CCC(C)n1ncn(-c2ccc(N3CCN(c4ccc(OCC5COC(Cn6cncn6)(c6ccc(Cl)cc6Cl)O5)cc4)CC3)cc2)c1=O (centres undefined) ?
OUT: 2 µg/mL

###

test system: Sporothrix schenckii; test: Antifungal activity against Sporothrix schenckii PSCC1 isolate from cutaneous-lymphatic sporotrichosis patient after 72 hrs by Sensititre YeastOne method; type: functional
OBSERVED_PROPERTY: MIC (mg/L)
Could you give me the number in mg/L? Just the number is fine.

| MOLECULE | MIC [mg/L] |
| --- | --- |
| CC(=O)N1CCN(c2ccc(OCC3COC(Cn4ccnc4)(c4ccc(Cl)cc4Cl)O3)cc2)CC1 (stereo unspecified) | 0.125 |
| C[C@@H]1[C@H](O)[C@@H](C)/C=C/C=C/C=C/C=C/C=C/C=C/C=C/[C@H](O[C@@H]2O[C@H](C)[C@@H](O)[C@H](N)[C@@H]2O)C[C@@H]2O[C@](O)(C[C@@H](O)C[C@@H](O)[C@H](O)CC[C@@H](O)C[C@@H](O)CC(=O)O[C@H]1C)C[C@H](O)[C@H]2C(=O)O | 0.25 |
| CCC(C)n1ncn(-c2ccc(N3CCN(c4ccc(OCC5COC(Cn6cncn6)(c6ccc(Cl)cc6Cl)O5)cc4)CC3)cc2)c1=O (stereo unspecified) | 0.25 |

Would you kindly look at the next entry?
IN: What MIC value was documented for this molecule, `C[C@@H](c1ncncc1F)[C@](O)(Cn1cncn1)c1ccc(F)cc1F` ?
OUT: 2

###

test system: Sporothrix schenckii; test: Antifungal activity against Sporothrix schenckii P26187 isolate from cutaneous-lymphatic sporotrichosis patient after 72 hrs by modified NCCLS M38-A method; format: functional
OBSERVED_PROPERTY: MIC (µg/mL)
Could you give me the number in µg/mL? Just the number is fine.

| MOLECULE | MIC (µg/mL) |
| --- | --- |
| C[C@@H](c1ncncc1F)[C@](O)(Cn1cncn1)c1ccc(F)cc1F | 8 |

Would you kindly look at the next entry?
IN: What MIC value was documented for this molecule, CCC(C)n1ncn(-c2ccc(N3CCN(c4ccc(OCC5COC(Cn6cncn6)(c6ccc(Cl)cc6Cl)O5)cc4)CC3)cc2)c1=O (centres undefined) ?
OUT: 0.5

###

tested on: Sporothrix schenckii; assay: Antifungal activity against Sporothrix schenckii PJRC002 isolate from cutaneous-lymphatic sporotrichosis patient after 72 hrs by modified NCCLS M38-A method; format: functional
OBSERVED_PROPERTY: MIC

Example compounds with recorded MIC:
| COMPOUND | MIC |
| --- | --- |
| C[C@@H](c1ncncc1F)[C@](O)(Cn1cncn1)c1ccc(F)cc1F [VORICONAZOLE] | 4 µg/mL |
| OC(Cn1cncn1)(Cn1cncn1)c1ccc(F)cc1F [FLUCONAZOLE] | > 64 µg/mL |
| CCC(C)n1ncn(-c2ccc(N3CCN(c4ccc(OCC5COC(Cn6cncn6)(c6ccc(Cl)cc6Cl)O5)cc4)CC3)cc2)c1=O (centres undefined) [ITRACONAZOLE] | 0.25 µg/mL |

Would you kindly look at the next entry?
IN: Given the entry C[C@@H]1[C@H](O)[C@@H](C)/C=C/C=C/C=C/C=C/C=C/C=C/C=C/[C@H](O[C@@H]2O[C@H](C)[C@@H](O)[C@H](N)[C@@H]2O)C[C@@H]2O[C@](O)(C[C@@H](O)C[C@@H](O)[C@H](O)CC[C@@H](O)C[C@@H](O)CC(=O)O[C@H]1C)C[C@H](O)[C@H]2C(=O)O [AMPHOTERICIN B] , what MIC was observed with Sporothrix schenckii?
OUT: 4 µg/mL

Values were extracted from ChEMBL document CHEMBL1150788.
